Ratio IC50 for assorted compounds
- Species: Homo sapiens
- assay method text: Potency index, ratio of acarbose IC50 to test compound IC50 for inhibition of alpha-amylase (unknown origin) using starch as substrate preincubated for 10 mins followed by substrate addition and measured after 10 mins
- test context: time 20.0 min
Format: numeric value only, no unit, no commentary.

Solved cases (3 shown):
[[record]]
query_smiles = "O=C(CN1C(=O)/C(=C/c2nc3ccccc3s2)SC1=S)Nc1ccc(C(F)(F)F)cc1"
observed_measurement = 234

[[record]]
query_smiles = "O=C(CN1C(=O)/C(=C/c2csc3ccccc23)SC1=S)Nc1ccc(C(F)(F)F)cc1"
observed_measurement = 68

[[record]]
query_smiles = "O=C(CN1C(=O)/C(=C/c2nccs2)SC1=S)Nc1c(F)cc(Br)cc1Cl"
observed_measurement = 21


Switching to the query record.
[ask] Using the record for `Cn1ccnc1/C=C1\SC(=S)N(CC(=O)Nc2ccc(C(F)(F)F)cc2)C1=O` , report its Ratio IC50.
[reply] 1340

====

- Species: Homo sapiens
- assay method text: Inhibition of alpha-amylase (unknown origin) using starch as substrate preincubated for 10 mins followed by substrate addition and measured after 10 mins relative to control
- Design: concentration or dose not given beside the values
- test context: time 20.0 min
observable: inhibition (%)
Kindly answer with a numeric value in %, unit omitted.

Solved cases (2 shown):
[[record]]
compound = "O=C(CN1C(=O)/C(=C/c2csc3ccccc23)SC1=S)Nc1c(F)cc(Br)cc1Cl"
value_units = "%"
observed_measurement = 68.2

[[record]]
compound = "CC(C)CNC(=O)CN1C(=O)/C(=C/c2nc3ccccc3s2)SC1=S"
value_units = "%"
observed_measurement = 43.2


[ask] Using the record for `Cn1ccnc1/C=C1\SC(=S)N(CC(=O)NC23CC4CC(CC(C4)C2)C3)C1=O` , report its inhibition.
[reply] 15.2

[ask] Using the record for `O=C(CN1C(=O)/C(=C/c2nccs2)SC1=S)Nc1c(F)cc(F)cc1Br` , report its inhibition.
[reply] 42.8

====

- Organism: Homo sapiens
- assay method text: Inhibition of alpha-glucosidase (unknown origin) using p-NPG as substrate preincubated for 5 mins followed by substrate addition and measured after 30 mins relative to control
- Design: concentration or dose not given beside the values
- test context: time 35.0 min
observable: inhibition
The reply should consist of the numeric value with the unit placed after it.

Solved cases (5 shown):
[[record]]
molecule = "Cn1ccnc1/C=C1\\SC(=S)N(CC(=O)Nc2c(F)cc(Br)cc2Cl)C1=O"
observed_measurement = "8.25%"

[[record]]
molecule = "O=C(CN1C(=O)/C(=C/c2csc3ccccc23)SC1=S)NC12CC3CC(CC(C3)C1)C2"
observed_measurement = "6.53%"

[[record]]
molecule = "Cn1ccnc1/C=C1\\SC(=S)N(CC(=O)Nc2cccnn2)C1=O"
observed_measurement = "9.47%"

[[record]]
molecule = "CC(C)CNC(=O)CN1C(=O)/C(=C/c2csc3ccccc23)SC1=S"
observed_measurement = "8.62%"

[[record]]
molecule = "Cn1ccnc1/C=C1\\SC(=S)N(CC(=O)Nc2ccc(Br)cc2F)C1=O"
observed_measurement = "8.36%"


[ask] Using the record for `O=C(CN1C(=O)/C(=C/c2nccs2)SC1=S)Nc1ccc(C(F)(F)F)cc1` , report its inhibition.
[reply] 7.83%

====

- assay method text: Inhibition of alpha-amylase (unknown origin)
- Design: species or system Homo sapiens
observable: IC50 (µM)
Kindly answer with a numeric value in µM, unit omitted.

[[record]]
compound = "Oc1ccc(-c2nnc(CSc3nc4ccccc4[nH]3)o2)c(O)c1"
observable = "IC50"
observed_measurement = 6.2

[[record]]
compound = "COc1ccc(C(=O)NC(=O)NC2CC2)cc1"
observable = "IC50"
observed_measurement = 1.57

[[record]]
compound = "Fc1ccc(NC(=S)Nc2nnc(-c3ccc4cn[nH]c4c3)s2)cc1"
observable = "IC50"
observed_measurement = 9.9

[[record]]
compound = "O=C(Cc1c[nH]c2ccccc12)NNS(=O)(=O)c1ccccc1F"
observable = "IC50"
observed_measurement = 1.8


[ask] Using the record for `O=C1OCc2cc(-c3ccc(C(F)(F)F)cc3)ccc21` , report its IC50.
[reply] 85.4

[ask] Using the record for C[C@H]1O[C@H](O[C@H]2[C@H](O)[C@@H](O)[C@@H](O[C@H]3[C@H](O)[C@@H](O)C(O)O[C@@H]3CO)O[C@@H]2CO)[C@H](O)[C@@H](O)[C@@H]1N[C@H]1C=C(CO)[C@@H](O)[C@H](O)[C@H]1O (stereo partly specified) [ACARBOSE] , report its IC50.
[reply] 1.06
